growth values for the molecules below.
System: U251 CNS
Assay Info: NCI-60 one-dose screen, 48 h (100 = growth as untreated, 0 = no growth, -100 = all killed)
Experimental Conditions: 10 µM unless noted
The panel holds about 83,000 compounds, 20% with a hit somewhere; the sample as a whole holds those more often. Activity calls are given as the source filed them. How the source made its calls: active means growth percent below 10; inactive means the rest.

Exercise: Give growth for the following molecule: "COc1ccc(NC(=O)c2sc3nc4c(cc3c2N)CCCC4)cc1"
Solution: 22.6% (inactive)

Exercise: Give growth for the following molecule: "CCNC(=O)Oc1ccc(/C(=C(/C)Cc2ccc(OC)cc2)c2ccc(OCCN3CCCC3)cc2)cc1"
Solution: 54.3% (inactive)

Exercise: Give growth for the following molecule: "C=CCn1c(SCC(=O)Nc2ccc(C(=O)/C=C/c3ccc(OC)cc3)cc2)nnc1-c1ccccc1"
Solution: 98.1% (inactive)

Exercise: Give growth for the following molecule: "Cc1ccc(-c2csc(NC(=O)N3CCN(c4cc5c(cc4F)c(=O)c(C(=O)O)cn5C4CC4)CC3)n2)cc1"
Solution: 15.4% (inactive)

Exercise: Give growth for the following molecule: COc1cc(C2C3=C(COC3=O)N(CCO)c3cc4c(cc32)OCCO4)cc(OC)c1OC (stereo unspecified)
Solution: 9.63% (active)

Exercise: Give growth for the following molecule: CO[C@H](C(=O)[C@@H](O)[C@@H](C)O)[C@@H]1Cc2cc3cc(O[C@H]4C[C@@H](O[C@H]5C[C@@H](O)[C@H](O)C(C)O5)[C@H](O)C(C)O4)c(C)c(O)c3c(O)c2C(=O)[C@H]1O[C@H]1C[C@@H](O[C@H]2C[C@@H](O[C@H]3C[C@@H](OC)[C@H](O)C(C)O3)[C@@H](O)C(C)O2)C(O)(O)C(C)O1 (stereo partly specified)
Solution: 9.8% (active)

Exercise: Give growth for the following molecule: "CCCCCCOC(=O)CC1=C(C)/C(=C/c2[nH]c(-c3ccc[nH]3)cc2OC)N=C1C"
Solution: -68.8% (active)

Exercise: Give growth for the following molecule: COc1ccc(C2=NN(C(=O)c3cc(OC)c(OC)c(OC)c3)C(c3ccc(N(C)C)cc3)C2)cc1 (stereo unspecified)
Solution: 15.6% (inactive)

Exercise: Give growth for the following molecule: "CCCCCCCCn1ccc2cc(NC(=O)Cn3cc(CN4CCN(CC)CC4)nn3)ccc21"
Solution: 5.79% (active)

Exercise: Give growth for the following molecule: "C=CCCC(=O)N1C=CC(=O)[C@H](O)[C@@H]1/C=C/c1ccccc1"
Solution: 33% [100 µM] (inactive)

Exercise: Give growth for the following molecule: "C=CCn1c(SCC(=O)Nc2ccc(C(=O)/C=C/c3cc(OC)c(OC)c(OC)c3)cc2)nnc1-c1cc(-c2ccc(OC)cc2)nc2ccccc12"
Solution: 88.3% (inactive)

Exercise: Give growth for the following molecule: "COc1ccc(OC)c(-c2cn3nc(-c4c[nH]c5ccc(Br)cc45)sc3n2)c1"
Solution: 36.9% (inactive)

Exercise: Give growth for the following molecule: "COc1ccc(OC)c(Nc2nnc(-c3ccc(Cl)cc3)o2)c1"
Solution: 2.55% (active)

Exercise: Give growth for the following molecule: "O=C(Cn1nnc([N+](=O)[O-])n1)c1ccccc1"
Solution: 106% (inactive)

Exercise: Give growth for the following molecule: "CCCCCCNc1nc(NCCCCCC)c2[nH]c(NCCCCCC)nc2n1"
Solution: -32.8% (active)

Exercise: Give growth for the following molecule: "CCOC(=O)c1cn2ncnc(Oc3ccc(NC(=O)NC4CC4)c(F)c3)c2c1C"
Solution: 82.5% (inactive)
